- Assayed Target: pre-fibrillized Amylin/IAPP fibrils (Homo sapiens, UniProt P10997)
- Construct: purchased Bachem Inc
- Sequence (P10997 34-70 limits assumed): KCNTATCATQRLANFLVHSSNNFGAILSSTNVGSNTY
- Assay Overview: Thioflavin T fluorometry, disruption/disassembly of pre-formed Amylin/IAPP fibrils
- Assay type: biochemical
- Condition Label: Amylin/IAPP:test compound wt/wt ratio 1:0.01; 3-day incubation at 37° C.
Overview of reported % Inhibition Amylin/IAPP (result ± S.D.), Thioflavin T fluorometry across a group of compounds:
Measured Property: % Inhibition Amylin/IAPP (result ± S.D.), Thioflavin T fluorometry (%)

Compound | Assayed Target | Recorded Result
Oc1ccc(-c2nnc(-c3ccc(O)c(O)c3)[nH]2)cc1O | pre-fibrillized Amylin/IAPP fibrils (Homo sapiens, UniProt P10997) | 41.4
O=C(Nc1cccc(O)c1O)c1cccc(O)c1O | pre-fibrillized Amylin/IAPP fibrils (Homo sapiens, UniProt P10997) | 51.7
Oc1ccc(-c2cnc(-c3ccc(O)c(O)c3)[nH]2)cc1O [Compound 6, 2,4 bis(3,4 dihydroxyphenyl) Imidazole] | pre-fibrillized Amylin/IAPP fibrils (Homo sapiens, UniProt P10997) | 68.9
O=S(=O)(Nc1ccc(O)c(O)c1)c1ccc(O)c(O)c1 | pre-fibrillized Amylin/IAPP fibrils (Homo sapiens, UniProt P10997) | 56.7

###

- Assayed Target: Amylin/IAPP fibrils (Homo sapiens, UniProt P10997)
- Sequence (P10997 34-70 limits assumed): as above
- Assay Overview: Congo red binding assay, Amylin/IAPP fibrils
- Type: biochemical
- Condition Label: Amylin/IAPP:test compound wt/wt ratio 1:0.01; 3-day incubation
Measured Property: % Inhibition Amylin/IAPP (result ± S.D.), Congo red binding (%)

Compound | Result Units | Recorded Result
O=S(=O)(Nc1ccc(O)c(O)c1)c1ccc(O)c(O)c1 [Compound 5] | % | 8.3
Oc1ccc(C23CC4CC(C2)CC(c2ccc(O)c(O)c2)(C4)C3)cc1O [Compound 9, 1,3 bis(3,4 dihydroxyphenyl) Adamantane] | % | 12.0
CN(C(=O)c1ccc(O)c(O)c1)c1ccc(O)c(O)c1 [Compound 4] | % | 8.0
O=C(Nc1cccc(O)c1O)c1cccc(O)c1O [Compound 3] | % | 3.6
O=C(Nc1ccc(O)c(O)c1)c1cccc(O)c1O [Compound 1] | % | 7.8
Oc1ccc(-c2cnc(-c3ccc(O)c(O)c3)[nH]2)cc1O [Compound 6, 2,4 bis(3,4 dihydroxyphenyl) Imidazole] | % | 1.0
Oc1ccc(-c2cc(-c3ccc(O)c(O)c3)[nH]n2)cc1O [Compound 8, 3,5 bis(3,4 Dihydroxyphenyl)Pyrazole] | % | 20.2
O=C(Nc1cccc(O)c1O)c1ccc(O)c(O)c1 [Compound 2] | % | 5.2

###

- Assayed Target: Amylin/IAPP fibrils (Homo sapiens, UniProt P10997)
- Assay Overview: Congo red binding assay, Amylin/IAPP fibrils
- Assay type: biochemical
- Condition Label: Amylin/IAPP:test compound wt/wt ratio 1:1; 3-day incubation
Overview of reported % Inhibition Amylin/IAPP (result ± S.D.), Congo red binding across a group of molecules:
Measured Property: % Inhibition Amylin/IAPP (result ± S.D.), Congo red binding (%)

Molecule | Recorded Result
O=C(Nc1cccc(O)c1O)c1cccc(O)c1O [Compound 3] | 60.1
Oc1ccc(-c2cnc(-c3ccc(O)c(O)c3)[nH]2)cc1O [Compound 6, 2,4 bis(3,4 dihydroxyphenyl) Imidazole] | 80.7
O=C(Nc1ccc(O)c(O)c1)c1cccc(O)c1O [Compound 1] | 58.1
O=S(=O)(Nc1ccc(O)c(O)c1)c1ccc(O)c(O)c1 [Compound 5] | 54.6
O=C(Nc1cccc(O)c1O)c1ccc(O)c(O)c1 [Compound 2] | 45.8

Hello, the source for this data is patent US20090227647A1, in case you need it.
